Numbers sourced from ChEMBL document CHEMBL3400120.

Target: Beta-secretase 1 (Homo sapiens, UniProt P56817)
Sequence (P56817 whole entry): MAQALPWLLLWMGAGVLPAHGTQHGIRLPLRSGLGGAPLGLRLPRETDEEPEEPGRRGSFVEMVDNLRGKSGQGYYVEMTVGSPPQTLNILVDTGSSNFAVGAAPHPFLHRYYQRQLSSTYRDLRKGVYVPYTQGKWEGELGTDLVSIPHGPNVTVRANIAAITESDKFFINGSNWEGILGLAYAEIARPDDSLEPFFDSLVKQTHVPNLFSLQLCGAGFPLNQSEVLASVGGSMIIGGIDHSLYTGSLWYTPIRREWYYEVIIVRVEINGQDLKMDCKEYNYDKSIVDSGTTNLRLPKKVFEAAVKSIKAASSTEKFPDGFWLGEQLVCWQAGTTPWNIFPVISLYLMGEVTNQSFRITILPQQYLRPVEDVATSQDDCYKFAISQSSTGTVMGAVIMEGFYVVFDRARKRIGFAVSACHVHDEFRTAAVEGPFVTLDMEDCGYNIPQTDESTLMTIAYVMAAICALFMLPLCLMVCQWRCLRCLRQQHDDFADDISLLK
Assay: Inhibition of BACE1 (unknown origin) after 90 mins by fluorescence assay
Details: read-out: IC50
pIC50: −log10 of the molar value. Numbered stars: 1 amine (or outer) side, 2 acyl side, 3 side chain; on linkers, the order of the positions; unused ones are H or OH. Square brackets hold non-standard residues; d marks the D form. Peptide text beside a SMILES is read from it. Ahppa(3S,4S) = O=C(C[C@H](O)[C@H](Cc1ccccc1)N[*:1])[*:2]; dNMeF = CN[C@H](Cc1ccccc1)C(=O)O; NMeQ = CN[C@@H](CCC(N)=O)C(=O)O; Lac = C[C@H](O)C(=O)O
assayReadout: pIC50

These recorded examples may help you get a feel for the data.
COC(=O)C[C@H](O)[C@H](Cc1ccccc1)NC(=O)[C@H](CCC(N)=O)N(C)C(=O)[C@@H](NC(=O)OCc1ccccc1)C(C)C ... < 5.00
CC(C)C[C@H](NC(=O)C[C@H](O)[C@H](Cc1ccccc1)NC(=O)[C@H](CCC(N)=O)N(C)C(=O)[C@@H](NC(=O)[C@H](C)O)C(C)C)C(=O)N[C@@H](C)C(=O)N(C)[C@H](Cc1ccccc1)C(=O)O (H-[Lac]V[NMeQ][Ahppa(3S,4S)]LA[dNMeF]-OH) ... 7.11

// query For Beta-secretase 1 (Homo sapiens, UniProt P56817), provide pIC50 of `CC(C)C[C@H](NC(=O)C[C@H](O)[C@H](Cc1ccccc1)NC(=O)[C@@H](N)Cc1cc2ccccc2[nH]1)C(=O)N[C@@H](C)C(=O)N(C)[C@H](Cc1ccccc1)C(=O)OCc1ccccc1` please.
// result < 5.00
